Quick rule for you: melting point at 200 °C or higher means yes (1), lower means no (0).

QUERY: Answer whether melting point of "Cc1cc2c(cc1C(F)(F)F)NC(=O)CC(c1cccc(-n3cccn3)c1)=N2" is greater than or equal to 200 °C.
RESULT: yes (1)

QUERY: Is it the case that "N#Cc1cccc(C2=Nc3cc(N4CCOCC4)c(C#N)cc3NC(=O)C2)c1" has melting point reaching or exceeding 200 °C?
RESULT: yes (1)

QUERY: Does melting point meet or surpass 200 °C for "Cn1nccc1-c1cccc(C2=Nc3cc(N4CCOCC4)c(C(F)(F)F)cc3NC(=O)C2)c1" ?
RESULT: yes (1)

QUERY: # bool: melting point of "Cc1cc(-c2cccc(C3=Nc4cc(C)c(C(F)(F)F)cc4NC(=O)C3)c2)on1" >= 200 °C
RESULT: yes (1)

QUERY: Answer whether melting point of "COc1cc2c(cc1C(F)(F)F)NC(=O)CC(c1cccc(-c3cc(C)no3)c1)=N2" is greater than or equal to 200 °C.
RESULT: yes (1)

QUERY: Check if melting point >= 200 °C (inclusive). Item: "N#Cc1cccc(C2=Nc3ccc(-n4cccc4)cc3NC(=O)C2)c1"
RESULT: yes (1)

QUERY: Hi team, for "Cc1cc2c(cc1C(F)(F)F)NC(=O)CC(c1cccc(-n3nncc3CO)c1)=N2" , is the recorded melting point at or above 200 °C?
RESULT: yes (1)

QUERY: Threshold query (melting point >= 200 °C) on "Cc1cc(-c2cccc(C3=Nc4cc(N5CCSCC5)c(C#N)cc4NC(=O)C3)c2)on1"
RESULT: yes (1)

QUERY: Please check the record "Cc1cc2c(cc1C(F)(F)F)NC(=O)CC(c1ccnc(C#N)c1)=N2" and state if its melting point is at or above 200 °C.
RESULT: yes (1)
